Molecular target: B1R receptor of the rat (Rattus norvegicus, UniProt P97583)
Construct: host or cells: CHO K1 cells (Chinese hamster ovary), stably transfected
Assay: Functional study on the bradykinin receptor 1 (B1R), FLIPR Ca2+ assay, rB1R cells
Type: cell-based
Conditions: CHO-K1, test substance 10 μM, agonist Des-Arg9-bradykinin 100 nM, % inhibition compared with the maximum achievable inhibition, read-out: B1R Antagonism, rat [10 μM] % Inhibition
Where a name gives a salt, the structure may show the parent alone.
# inhibition at 10 µM values compiled below
# unit: % | format: bare number

{"compound": "COc1cc(C)c(S(=O)(=O)N2CCCC2COCC(=O)N(C)C(CN2CCOCC2)c2ccccc2)c(C)c1 (stereo not shown)", "inhibition at 10 µM (%)": 102}
{"compound": "O=C(COCC1CCCCN1S(=O)(=O)c1c(Cl)cccc1Cl)N1CCN(c2nc3ccccc3s2)CC1 (stereo not shown)", "inhibition at 10 µM (%)": 101}
{"compound": "COc1cc(C)c(S(=O)(=O)N2CCCCC2COCC(=O)N2CCN(Cc3cccc(C#N)c3)CC2)c(C)c1 (stereo not shown) [Example 92, hydrochloride]", "inhibition at 10 µM (%)": 101}

Now for a further compound.
Query string: Given O=C(COCC1CCCCN1S(=O)(=O)c1ccc(Cl)c(Cl)c1)N1CCOC(CN2CCCCC2)C1 (stereo not shown) , state its recorded inhibition at 10 µM.
Result string: 2.12

###

# inhibition at 10 µM values compiled below
Target: B1R receptor of the rat (Rattus norvegicus)
Construct: host or cells: CHO K1 cells (Chinese hamster ovary), stably transfected
Sequence (P97583 1-337): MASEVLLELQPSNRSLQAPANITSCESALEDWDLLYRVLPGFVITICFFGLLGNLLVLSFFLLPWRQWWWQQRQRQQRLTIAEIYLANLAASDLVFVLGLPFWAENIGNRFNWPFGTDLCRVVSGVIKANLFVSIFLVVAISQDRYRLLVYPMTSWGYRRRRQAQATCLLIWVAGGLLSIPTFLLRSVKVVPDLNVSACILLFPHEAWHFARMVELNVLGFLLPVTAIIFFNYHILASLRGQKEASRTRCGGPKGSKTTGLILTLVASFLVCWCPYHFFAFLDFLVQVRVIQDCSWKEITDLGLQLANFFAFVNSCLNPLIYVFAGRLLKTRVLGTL
Experiment: Functional study on the bradykinin receptor 1 (B1R), FLIPR Ca2+ assay, rB1R cells
Format: cell-based
Conditions: CHO-K1, test substance 10 μM, agonist Des-Arg9-bradykinin 100 nM, % inhibition compared with the maximum achievable inhibition, read-out: B1R Antagonism, rat [10 μM] % Inhibition
# unit: % | format: bare number

Worked examples, 10 compounds total:
{"compound": "COc1cc(C)c(S(=O)(=O)N2CCCC2COCC(=O)NCC(c2ccc(C(F)(F)F)cc2)N(C)C)c(C)c1 (stereo not drawn) [Example 495]", "measurement-target": "B1R receptor of the rat (Rattus norvegicus)", "reported-value": 95.7}
{"compound": "COc1cc(C)c(S(=O)(=O)N2CCCCC2COCC(=O)NCc2ccccc2N2CCOCC2)c(C)c1 (stereo not drawn) [Example 435]", "measurement-target": "B1R receptor of the rat (Rattus norvegicus)", "reported-value": 99.6}
{"compound": "COc1cc(C)c(S(=O)(=O)N2CCCC2COCC(=O)N2CCN(c3ccc(C(F)(F)F)cn3)CC2)c(C)c1 (stereo not drawn) [Example 468]", "measurement-target": "B1R receptor of the rat (Rattus norvegicus)", "reported-value": 101}
{"compound": "COc1cc(C)c(S(=O)(=O)N2CCCCC2COCC(=O)Nc2nccc3ccccc23)c(C)c1 (stereo not drawn) [Example 370]", "measurement-target": "B1R receptor of the rat (Rattus norvegicus)", "reported-value": 98.8}
{"compound": "Cc1ccc(CN2CCN(C(=O)COCC3CCCN3S(=O)(=O)c3c(Cl)cccc3Cl)CC2)cc1 (stereo not drawn) [Example 360]", "measurement-target": "B1R receptor of the rat (Rattus norvegicus)", "reported-value": 103}
{"compound": "CN(C(=O)COCC1Cc2ccccc2CN1S(=O)(=O)c1ccc(Cl)cc1Cl)C1CCN(Cc2ccccc2)C1 (stereo not drawn) [Example 78]", "measurement-target": "B1R receptor of the rat (Rattus norvegicus)", "reported-value": 35.2}
{"compound": "O=C(COCC1CCCN1S(=O)(=O)c1c(Cl)cccc1Cl)N1CCC(CCN2CCCCC2)CC1 (stereo not drawn) [Example 286]", "measurement-target": "B1R receptor of the rat (Rattus norvegicus)", "reported-value": 97.9}
{"compound": "COc1cc(C)c(S(=O)(=O)N2CCCCC2COCC(=O)N2CCN(c3ncccc3C#N)CC2)c(C)c1 (stereo not drawn) [Example 513]", "measurement-target": "B1R receptor of the rat (Rattus norvegicus)", "reported-value": 101}
{"compound": "CC(C)N(CCN1CCN(C(=O)COCC2CCCN2S(=O)(=O)c2c(Cl)cc(Cl)cc2Cl)CC1)C(C)C (stereo not drawn) [Example 333]", "measurement-target": "B1R receptor of the rat (Rattus norvegicus)", "reported-value": 101}
{"compound": "COc1cc(C)c(S(=O)(=O)N2CCCCC2COCC(=O)Nc2cc(-c3ccccc3OC)[nH]n2)c(C)c1 (stereo not drawn) [Example 540]", "measurement-target": "B1R receptor of the rat (Rattus norvegicus)", "reported-value": 100}

Now for a further compound.
Query string: Fill in the recorded inhibition at 10 µM for this compound, with B1R receptor of the rat (Rattus norvegicus) as test system: CN1CCC(N2CCN(C(=O)COCC3CCCCN3S(=O)(=O)c3ccc(C(F)(F)F)cc3Cl)CC2)CC1 (stereo not drawn) [Example 138]
Result string: 98.5
